The measured values listed here are drawn from ChEMBL document CHEMBL3994622.

Tested on: HCC 2998
experiment-summary: Growth inhibition of human HCC2998 cells incubated for 48 hrs by sulforhodamine B assay
Assay type: functional
measurement-conditions: HCC 2998, 48 h, read-out: LC50 (the source's name)
readout-kind: CC50 (µM)
Value expressed in µM; do not type the unit.

>  <line-notation>
COc1cc2cc(Oc3ccc(NC(=O)Nc4ccc(Cl)c(C(F)(F)F)c4)cc3)c(C)nc2cc1OC

>  <target-under-test>
HCC 2998

>  <reading>
13.6

$$$$
>  <line-notation>
Cc1nc2cc(O)c(O)cc2cc1Oc1ccc(NC(=O)Nc2ccc(Cl)c(Cl)c2)cc1

>  <target-under-test>
HCC 2998

>  <reading>
32

$$$$

Consider the additional compound presented here.
Request: CC50 of COc1cc2cc(Oc3ccc(NC(=O)Nc4cc(C(F)(F)F)cc(C(F)(F)F)c4)cc3)c(C)nc2cc1OC on HCC 2998?
Result: 6.49

###

System: SW-620
experiment-summary: Growth inhibition of human SW620 cells incubated for 48 hrs by sulforhodamine B assay
Assay type: functional
measurement-conditions: SW-620, 48 h
readout-kind: LC50 (µM)
Value expressed in µM; do not type the unit.

Completed entries (count: 2):
>  <line-notation>
COc1cc2cc(Oc3ccc(NC(=O)Nc4ccc(Cl)c(Cl)c4)cc3)c(C)nc2cc1OC

>  <units-symbol>
µM

>  <LC50>
60.9

$$$$
>  <line-notation>
COc1cc2cc(Oc3ccc(NC(=O)Nc4cc(C(F)(F)F)cc(C(F)(F)F)c4)cc3)c(C)nc2cc1OC

>  <units-symbol>
µM

>  <LC50>
39.3

$$$$

Consider the additional compound presented here.
Request: For the compound shown here, COc1cc2cc(Oc3ccc(NC(=O)Nc4ccc(Cl)c(C(F)(F)F)c4)cc3)c(C)nc2cc1OC , give the reported LC50.
Result: 14

###

Test system: CAKI-1
experiment-summary: Growth inhibition of human Caki1 cells assessed as cell growth at 10 uM incubated for 48 hrs by sulforhodamine B assay relative to control
Type: functional
measurement-conditions: CAKI-1, 48 h, read-out: Activity
readout-kind: growth at 10 µM (%)
Value expressed in %; do not type the unit.

>  <line-notation>
COc1cc2cc(Oc3ccc(NC(=O)Nc4cc(C(F)(F)F)cc(C(F)(F)F)c4)cc3)c(C)nc2cc1OC

>  <units-symbol>
%

>  <reading>
6.4

$$$$
>  <line-notation>
COc1cc2cc(Oc3ccc(NC(=O)Nc4ccc(Cl)c(Cl)c4)cc3)c(C)nc2cc1OC

>  <units-symbol>
%

>  <reading>
21.8

$$$$
>  <line-notation>
COc1cc2cc(Oc3ccc(NC(=O)Nc4ccccc4)cc3)c(C)nc2cc1OC

>  <units-symbol>
%

>  <reading>
88.7

$$$$
>  <line-notation>
COc1cc2cc(Oc3ccc(NC(=O)Nc4ccc(C(F)(F)F)cc4)cc3)c(C)nc2cc1OC

>  <units-symbol>
%

>  <reading>
70.4

$$$$

Consider the additional compound presented here.
Request: For the compound shown here, COc1cc2cc(Oc3ccc(NC(=O)Nc4ccc(Cl)c(C(F)(F)F)c4)cc3)c(C)nc2cc1OC , give the reported growth at 10 µM.
Result: -8.92

###

System: 786-0
experiment-summary: Growth inhibition of human 786-0 cells assessed as cell growth at 10 uM incubated for 48 hrs by sulforhodamine B assay relative to control
Assay type: functional
measurement-conditions: 786-0, 48 h, read-out: Activity
Below, each of the compounds is paired with its reported growth at 10 µM value.
Value expressed in %; do not type the unit.

Completed entries (count: 8):
>  <line-notation>
COc1cc2cc(Oc3ccc(NC(=O)Nc4ccc(Cl)c(C(F)(F)F)c4)cc3)c(C)nc2cc1OC

>  <units-symbol>
%

>  <growth at 10 µM>
-21.1

$$$$
>  <line-notation>
Cc1nc2cc(O)c(O)cc2cc1Oc1ccc(NC(=O)Nc2ccc(Cl)c(Cl)c2)cc1

>  <units-symbol>
%

>  <growth at 10 µM>
103

$$$$
>  <line-notation>
COc1cc2cc(Oc3ccc(NC(=O)Nc4ccc(C(F)(F)F)cc4)cc3)c(C)nc2cc1OC

>  <units-symbol>
%

>  <growth at 10 µM>
74.9

$$$$
>  <line-notation>
COc1cc2cc(Oc3ccc(NC(=O)Nc4ccccc4)cc3)c(C)nc2cc1OC

>  <units-symbol>
%

>  <growth at 10 µM>
94.8

$$$$
>  <line-notation>
COc1cc2cc(Oc3ccc(NC(=O)Nc4cccc(C(F)(F)F)c4)cc3)c(C)nc2cc1OC

>  <units-symbol>
%

>  <growth at 10 µM>
15.1

$$$$
>  <line-notation>
COc1cc2cc(Oc3ccc(NC(=O)Nc4ccc(C)cc4)cc3)c(C)nc2cc1OC

>  <units-symbol>
%

>  <growth at 10 µM>
126

$$$$
>  <line-notation>
COc1cc2cc(Oc3ccc(NC(=O)Nc4cc(C(F)(F)F)cc(C(F)(F)F)c4)cc3)c(C)nc2cc1OC

>  <units-symbol>
%

>  <growth at 10 µM>
-16.6

$$$$
>  <line-notation>
COc1cc2cc(Oc3ccc(NC(=O)Nc4ccc(Cl)c(Cl)c4)cc3)c(C)nc2cc1OC

>  <units-symbol>
%

>  <growth at 10 µM>
20.3

$$$$

Consider the additional compound presented here.
Request: For the compound shown here, COc1cc2cc(Sc3ccc(NC(=O)Nc4ccc(Cl)c(Cl)c4)cc3)c(C)nc2cc1OC , give the reported growth at 10 µM.
Result: 73.4
